Tested on: Mus musculus
TEST DETAILS: Anticonvulsant activity in ip dosed albino mouse assessed as dose causing >25% increase in maximal electroshock-induced maximal extensor seizure relative to untreated control
Type: functional
Label scheme for Activity: lower than 10 mg/kg is class 0, 10 mg/kg and above is class 1.

Exam item: I'd appreciate it if you could say whether CN(C)CCN1CCN(c2ccccc2)c2ccccc2C1=O has Activity at least equal to 10 mg/kg.
Marked response: class 1

Exam item: I'd appreciate it if you could say whether C[N+]1(CCN2CCN(c3ccccc3)c3ccccc3C2=O)CCCC1.[I-] has Activity at least equal to 10 mg/kg.
Marked response: class 0

Exam item: I'd appreciate it if you could say whether CCN(CC)CCN1CCN(c2ccccc2)c2ccccc2C1=O has Activity at least equal to 10 mg/kg.
Marked response: class 0

Exam item: I'd appreciate it if you could say whether CC(CN(C)C)N1CCN(c2ccccc2)c2ccccc2C1=O (stereo not given) has Activity at least equal to 10 mg/kg.
Marked response: class 1

Exam item: I'd appreciate it if you could say whether CC(C[N+](C)(C)C)N1CCN(c2ccccc2)c2ccccc2C1=O.[I-] (stereo not given) has Activity at least equal to 10 mg/kg.
Marked response: class 0

Exam item: I'd appreciate it if you could say whether C[N+](C)(C)CCN1CCN(c2ccccc2)c2ccccc2C1=O.[I-] has Activity at least equal to 10 mg/kg.
Marked response: class 1

Exam item: I'd appreciate it if you could say whether CC[N+](C)(CC)CCN1CCN(c2ccccc2)c2ccccc2C1=O.[I-] has Activity at least equal to 10 mg/kg.
Marked response: class 0

Exam item: I'd appreciate it if you could say whether O=C1c2ccccc2N(c2ccccc2)CCN1CCN1CCCCC1 has Activity at least equal to 10 mg/kg.
Marked response: class 1

* * *

Test system: Mus musculus
TEST DETAILS: Toxicity in albino mouse assessed as body-temperature variation at 10 mg/kg, ip measured 20 mins after dl-amphetamine sulfate injection dosed 30 mins before dl-amphetamine sulfate injection
Assay type: organism-based
Set-up: dose 10 mg/kg, route intraperitoneal
CONDITION PARAMETERS: in vivo
OUTCOME MEASURE: temperature change (°C)
Please give a number only; it is taken to be in °C.

Exam item: Provide the documented temperature change with Mus musculus as the system for O=C1NCCN(c2ccc([N+](=O)[O-])cc2)c2ccc([N+](=O)[O-])cc21
Marked response: 1

Exam item: Provide the documented temperature change with Mus musculus as the system for O=C1c2ccccc2N(c2ccccc2)CCN1CCN1CCCCC1
Marked response: 1.4

Exam item: Provide the documented temperature change with Mus musculus as the system for Nc1ccc(N2CCNC(=O)c3ccccc32)cc1
Marked response: 1.4

Exam item: Provide the documented temperature change with Mus musculus as the system for CN(C)CCN1CCN(c2ccccc2)c2ccccc2C1=O
Marked response: 0.6

Exam item: Provide the documented temperature change with Mus musculus as the system for Nc1ccc2c(c1)C(=O)NCCN2c1ccc([N+](=O)[O-])cc1
Marked response: 1.2

Exam item: Provide the documented temperature change with Mus musculus as the system for O=C1c2ccccc2N(c2ccccc2)CCN1CCN1CCCC1
Marked response: -0.2

* * *

Tested on: Mus musculus
TEST DETAILS: Neurotoxicity in albino mouse at 10 mg/kg, po up to 5 mins by rotorod test relative to control
Format: toxicity, organism-based
Set-up: dose 10 mg/kg, route oral
CONDITION PARAMETERS: in vivo
Assignment: determine reported Activity for the given compounds.
Kindly format the answer as number then unit.

Exam item: Give its Activity value. Item: Nc1ccc2c(c1)C(=O)NCCN2c1ccc([N+](=O)[O-])cc1
Marked response: 39%

Exam item: Give its Activity value. Item: CNC1=Nc2ccc(Cl)cc2C(c2ccccc2)=[N+]([O-])C1 [CHLORDIAZEPOXIDE]
Marked response: -50%

Exam item: Give its Activity value. Item: O=C1NCCN(c2ccc([N+](=O)[O-])cc2)c2ccc([N+](=O)[O-])cc21
Marked response: -45%

Exam item: Give its Activity value. Item: Nc1ccc(N2CCNC(=O)c3ccccc32)cc1
Marked response: -20%

Exam item: Give its Activity value. Item: O=C1c2ccccc2N(c2ccccc2)CCN1CCN1CCCC1
Marked response: -32%

Exam item: Give its Activity value. Item: CN(C)CCN1CCN(c2ccccc2)c2ccccc2C1=O
Marked response: -6%

Exam item: Give its Activity value. Item: CC(CN(C)C)N1CCN(c2ccccc2)c2ccccc2C1=O (stereo not drawn)
Marked response: -25%

Exam item: Give its Activity value. Item: C[N+]1(CCN2CCN(c3ccccc3)c3ccccc3C2=O)CCCCC1.[I-]
Marked response: 8%

Exam item: Give its Activity value. Item: CN1C(=O)CN=C(c2ccccc2)c2cc(Cl)ccc21
Marked response: -40%

Exam item: Give its Activity value. Item: CCN(CC)CCN1CCN(c2ccccc2)c2ccccc2C1=O
Marked response: 11%

Exam item: Give its Activity value. Item: CN(C)CCCN1CCN(c2ccccc2)c2ccccc2C1=O
Marked response: -12%

Exam item: Give its Activity value. Item: O=C1c2ccccc2N(c2ccccc2)CCN1CCN1CCCCC1
Marked response: -27%

Exam item: Give its Activity value. Item: C[N+]1(CCN2CCN(c3ccccc3)c3ccccc3C2=O)CCCC1.[I-]
Marked response: 11%

* * *

Test system: Mus musculus
TEST DETAILS: Toxicity in albino mouse assessed as translatory movements at 10 mg/kg, ip relative to control
Format: organism-based
Parameters: dose 10 mg/kg, route intraperitoneal
CONDITION PARAMETERS: in vivo
OUTCOME MEASURE: Activity (%)
Please give a number only; it is taken to be in %.

Exam item: Give its Activity value. Item: O=C1c2ccccc2N(c2ccccc2)CCN1CCN1CCCC1
Marked response: -10

Exam item: Give its Activity value. Item: CNC1=Nc2ccc(Cl)cc2C(c2ccccc2)=[N+]([O-])C1 [CHLORDIAZEPOXIDE]
Marked response: -40

Exam item: Give its Activity value. Item: O=C1NCCN(c2ccc([N+](=O)[O-])cc2)c2ccc([N+](=O)[O-])cc21
Marked response: -21

Exam item: Give its Activity value. Item: CN(C)CCN1CCN(c2ccccc2)c2ccccc2C1=O
Marked response: -30

Exam item: Give its Activity value. Item: CN(C)CCCN1CCN(c2ccccc2)c2ccccc2C1=O
Marked response: -15

Exam item: Give its Activity value. Item: CC(CN(C)C)N1CCN(c2ccccc2)c2ccccc2C1=O (stereo unspecified)
Marked response: 4

Exam item: Give its Activity value. Item: Nc1ccc2c(c1)C(=O)NCCN2c1ccc([N+](=O)[O-])cc1
Marked response: -15

Exam item: Give its Activity value. Item: O=C1c2ccccc2N(c2ccccc2)CCN1CCN1CCCCC1
Marked response: -11

Exam item: Give its Activity value. Item: CN1C(=O)CN=C(c2ccccc2)c2cc(Cl)ccc21 [DIAZEPAM]
Marked response: -50

Exam item: Give its Activity value. Item: Nc1ccc(N2CCNC(=O)c3ccccc32)cc1
Marked response: 2

Exam item: Give its Activity value. Item: CCN(CC)CCN1CCN(c2ccccc2)c2ccccc2C1=O
Marked response: 1

* * *

Tested on: Mus musculus
TEST DETAILS: Toxicity in ip dosed albino mouse assessed as dose required to increase 25% of dl-amphetamine sulfate-induced death
Type: organism-based
CONDITION PARAMETERS: in vivo
OUTCOME MEASURE: Activity (mg/kg)
Please give a number only; it is taken to be in mg/kg.

Exam item: Give its Activity value. Item: C[N+]1(CCN2CCN(c3ccccc3)c3ccccc3C2=O)CCCC1.[I-]
Marked response: 3

Exam item: Give its Activity value. Item: CN(C)CCN1CCN(c2ccccc2)c2ccccc2C1=O
Marked response: 10

Exam item: Give its Activity value. Item: O=C1c2ccccc2N(c2ccccc2)CCN1CCN1CCCCC1
Marked response: 10

Exam item: Give its Activity value. Item: C[N+](C)(C)CCN1CCN(c2ccccc2)c2ccccc2C1=O.[I-]
Marked response: 5

Exam item: Give its Activity value. Item: C[N+](C)(C)CCCN1CCN(c2ccccc2)c2ccccc2C1=O.[I-]
Marked response: 5

Exam item: Give its Activity value. Item: CC[N+](C)(CC)CCN1CCN(c2ccccc2)c2ccccc2C1=O.[I-]
Marked response: 3

* * *

System: Mus musculus
TEST DETAILS: Toxicity in ip dosed albino mouse assessed as barbiturate-induced sleep by measuring loss of righting reflex relative to control
Format: organism-based
CONDITION PARAMETERS: in vivo
Assignment: determine reported Activity for the given compounds.
Please give a number only; it is taken to be in %.

Exam item: Give its Activity value. Item: Nc1ccc(N2CCNC(=O)c3ccccc32)cc1
Marked response: 90

Exam item: Give its Activity value. Item: CN(C)CCN1CCN(c2ccccc2)c2ccccc2C1=O
Marked response: 4

Exam item: Give its Activity value. Item: CC(CN(C)C)N1CCN(c2ccccc2)c2ccccc2C1=O (stereo unspecified)
Marked response: 20

Exam item: Give its Activity value. Item: C[N+](C)(C)CCCN1CCN(c2ccccc2)c2ccccc2C1=O.[I-]
Marked response: -25

Exam item: Give its Activity value. Item: C[N+]1(CCN2CCN(c3ccccc3)c3ccccc3C2=O)CCCCC1.[I-]
Marked response: 20

Exam item: Give its Activity value. Item: CC(C[N+](C)(C)C)N1CCN(c2ccccc2)c2ccccc2C1=O.[I-] (stereo unspecified)
Marked response: -15
